Let's look at some molecules and their measured drug-induced phospholipidosis.
- Tested on: A549-ACE2
- assayNotes: drug-induced phospholipidosis relative to tamoxifen; higher = more phospholipidosis
- statedConditions: 0.833333 µM; 48 h
Counter-ions that a name gives are not always drawn.
Write the value in % as a bare number.

CC/C(=C(\c1ccc(O)cc1)c1ccc(OCCNC)cc1)c1ccccc1 [Endoxifen HCl]; 7.92
C[C@@H](NCCCc1cccc(C(F)(F)F)c1)c1cccc2ccccc12; 6.54
C[C@@H]1COCCN1c1cc(=O)n2c(n1)N(Cc1cncc(Cl)c1)[C@H](C(F)(F)F)CC2; -10.5

Request: Give the measured drug-induced phospholipidosis of "Oc1ccc2c3c1O[C@H]1c4c(c5ccccc5n4Cc4ccccc4)C[C@@]4(O)[C@@H](C2)N(CC2CC2)CC[C@]314" .
Response: 4.16

Request: "O=C(Nc1ncc(SCCN2CCCC2)s1)[C@]1(c2ccc(S(=O)(=O)C3CC3)cc2)C[C@H]1C1CCCCC1" , same question.
Response: 21.2

Request: "Cc1ccc(S(=O)(=O)/C=C/C#N)cc1" , same question.
Response: 0.11

Request: CNc1cc(OC)c(C(=O)NC2CCN(Cc3ccccc3)C2C)cc1Cl (stereo not drawn) [nemonapride] , same question.
Response: 4.55

Request: "CNCc1ccc(-c2cc(-c3nc(-c4ccc(S(=O)(=O)C(C)C)cc4)cnc3N)on2)cc1" , same question.
Response: 28

====

Let's look at some compounds and their measured cell viability.
- Test system: Calu-3
- assayNotes: cell viability relative to DMSO; higher = less toxic
- statedConditions: 72 h; 1 nM
Write the value in % as a bare number.

Solved cases (3 shown):
CC(C)NC[C@@H](O)COc1ccc(CC(N)=O)cc1 (racemic) [atenolol-(+/-)]; 94.2
O=C(O)c1ccc(Nc2ncc3c(n2)-c2ccc(Cl)cc2C(c2c(F)cccc2F)=NC3)cc1 [MLN8054]; 96.2
O=C(O)C(=O)Nc1cccc(-c2nnn[nH]2)c1 [acitazanolast]; 100

Request: Please provide the recorded cell viability for CCSc1ccc2c(c1)N(CCCN1CCN(C)CC1)c1ccccc1S2 [thiethylperazine] , tested on Calu-3.
Response: 101

Request: "N#Cc1ccc(-c2ccc(S(=O)(=O)Nc3cccc(N)n3)cc2)cc1" , same question.
Response: 99.6

====

Let's look at some molecules and their measured cell viability.
- Test system: U2OS
- assayNotes: cell viability relative to DMSO; higher = less toxic
- statedConditions: 72 h; 10000 nM
Write the value in % as a bare number.

C/N=C(/NC#N)NCCSCc1csc(NC(=N)N)n1 [tiotidine]; 106
CCCN1CCN(c2ccc(C(=O)NC3(C(=O)NCC#N)CCCCC3)cc2)CC1 [balicatib]; 95.4
COc1ccccc1NC(=O)OCC1CCN(C(=O)OC(C)(C)C)CC1; 94.7
O=C(O)C[CH2][Ge](=[O])[O][Ge](=[O])[CH2]CC(=O)O [propagermanium]; 97.5
Cc1cc(C(=O)Nc2cccc(C(=O)Nc3cccc(C(F)(F)F)c3)c2)on1; 104
c1cc2c(cc1[C@H]1OC[C@H]3[C@@H]1CO[C@@H]3c1ccc3c(c1)OCO3)OCO2 [sesamin]; 99.3
Oc1ccc2c3c1O[C@H]1c4c(c5ccccc5n4Cc4ccccc4)C[C@@]4(O)[C@@H](C2)N(CC2CC2)CC[C@]314 [N-benzylnaltrindole]; 89.1
CC(C)N1Cc2cc(S(C)(=O)=O)ccc2N(CCN2CC=C(c3c[nH]c4cc(F)ccc34)CC2)S1(=O)=O; 95.2

Request: Give the measured cell viability of CCOc1ccc(Cc2cc([C@]34OC[C@](CO)(O3)[C@@H](O)[C@H](O)[C@H]4O)ccc2Cl)cc1 [ertugliflozin] .
Response: 101

Request: CCCCCNCC(N)=O [milacemide] , same question.
Response: 98.6

Request: C[N+](C)(C)CC#CCN1CCCC1=O [oxotremorine-M] , same question.
Response: 99.5

Request: CCCCCCCCCCC(CO)CCCCCCCC (stereo not drawn) [2-octyldodecan-1-ol] , same question.
Response: 95.9

Request: O=C1COc2c(CCNCCN(C(=O)CCNCCc3ccc(Cl)c(Cl)c3)C3CCCCC3)ccc(O)c2N1 [AZ505] , same question.
Response: 91.2

src = the supplement of paper PMC13380429
